# Method description: Cycloheximide Counterscreen for Small Molecule Inhibitors of Shiga Toxin; also: read at 38.3 µM for the half of the compounds with a filed dose
# Assay conditions: cell reporter, cycloheximide protein synthesis inhibition counterscreen
Out of some 300,000 compounds screened, about 37,000 (12%) were called active. Rule as the data show it: active = max response mostly above about 13% (no sharp cut-off); inactive = mostly below about 14%. Shown is part of a subset that was picked to be rich in actives.
# output must be one of active, inactive

Reference set, count: 2
CCOC(=O)C1CCCN(CCSc2ccc(C)cc2)C1 (stereo not drawn)    inactive
COC(=O)c1ccc(COc2cc([N+](=O)[O-])cc3cccnc23)cc1    inactive

[Q] How did this test come out for "O=C(CNC(=O)c1cc2c(s1)CCC2)Nc1ccccc1Br" ?
[A] active

[Q] How about this molecule: "O=S(=O)(c1ccc(Cl)cc1)c1nc(-c2ccccc2F)oc1NCCN1CCOCC1"
[A] inactive

[Q] How about this molecule: "CCOC(=O)Cc1csc(NC(=O)CSc2ccc(Br)cc2)n1"
[A] inactive

###

# Method description: Cycloheximide Counterscreen for Small Molecule Inhibitors of Shiga Toxin; also: read at 38.3 µM for the half of the compounds with a filed dose
# Assay conditions: cell reporter, cycloheximide protein synthesis inhibition counterscreen
The whole screen tested about 300,000 compounds, of which about 37,000 (12%) were called active. No stated cut-off is given here; in the data, active means max response mostly above about 13% (no sharp cut-off); inactive means mostly below about 14%. This excerpt belongs to a sample that is enriched for actives.
# output must be one of active, inactive

Reference set, count: 3
O=C(O)/C=C/C(=O)NNc1ccc([N+](=O)[O-])cc1    inactive
CCOC(=O)c1c(NC(=O)C2CC=CCC2C(=O)O)sc(C)c1CC (stereo not given)    inactive
O=C(N/N=C/c1cccc([N+](=O)[O-])c1)c1ccncc1    active

[Q] How did this test come out for "CCN(CC)S(=O)(=O)c1cccc(C(=O)NCC(=O)OCC(=O)NCc2ccccc2)c1" ?
[A] inactive

[Q] How about this compound: "Cc1cccc(OCc2ccc(C(=O)Nc3ccc(F)cc3)cc2)c1"
[A] inactive

###

max response overview
# Method description: Cycloheximide Counterscreen for Small Molecule Inhibitors of Shiga Toxin; also: read at 38.3 µM for the half of the compounds with a filed dose
# Assay conditions: cell reporter, cycloheximide protein synthesis inhibition counterscreen; hits give high values
In all, about 300,000 compounds went through this assay and about 37,000 (12%) were called active. Many of the other results were omitted from the sample, so actives are more common in it than they were.

O=[N+]([O-])c1cc(C(F)(F)F)ccc1NCCc1ccncc1    9.83% (inactive)
Cc1ccccc1CSCC(=O)NC(=O)NC(C)(C)C    9.92% (inactive)
COCn1c(C(O)c2ccccc2)cc2ccccc21 (stereo unspecified)    5.67% (inactive)
COC(=O)[C@@H]1CC(O)CN1C(=O)C12CC3CC(CC(C3)C1)C2 (stereo partly specified)    -8.25% (inactive)
Cc1ccc2nc(N3C(=O)C(O)=C(C(=O)c4ccco4)C3c3cccc(O)c3)sc2c1 (stereo unspecified)    23.5% (active)
Fc1ccccc1CCNc1nnnn1-c1ccccc1    0.858% (inactive)
CC(C)c1ccc(/C=C2\NC(=O)NC2=O)cc1    18.8% (active)
COc1ccc(/C=C2/C(=O)N(c3ccccc3)N=C2C)c(OC)c1    -1.9% (inactive)

[Q] I would be grateful if you could share the reported max response for "COc1ccccc1CNC(=O)c1ccc(SC)cc1OC" .
[A] 8.03% (inactive)

[Q] How about this compound: "COc1ccccc1OCCNC(=O)CCNC(=O)c1ccccc1Cl"
[A] 5.13% (inactive)

[Q] How about this compound: "Cc1ccnc(NC(=O)c2ccoc2C)c1"
[A] 35.7% (active)

###

# Method description: Cycloheximide Counterscreen for Small Molecule Inhibitors of Shiga Toxin; also: read at 38.3 µM for the half of the compounds with a filed dose
# Assay conditions: cell reporter, cycloheximide protein synthesis inhibition counterscreen
Out of some 300,000 compounds screened, about 37,000 (12%) were called active. Rule as the data show it: active = max response mostly above about 13% (no sharp cut-off); inactive = mostly below about 14%. Only a selection was taken, and actives are over-represented in it overall.
# output must be one of 1 (yes) for active, 0 (no) for inactive

Cc1ccc(N(C(=O)c2ccc(S(=O)(=O)N(C)C)cc2)C2C=CS(=O)(=O)C2)cc1 (configuration not stated)    0 (no)
COc1ccc(CCN2CC(C(=O)NCCN3CCNC3=O)CCC2=O)cc1 (configuration not stated)    0 (no)
N#C/C(=C/c1ccc(-c2ccccc2[N+](=O)[O-])o1)C(=O)NCCN1CCCCC1    0 (no)
COc1cc(/C=N\Nc2ccc([N+](=O)[O-])cn2)ccc1OCC(=O)O    0 (no)
Cc1ccc(-c2ccc(/C=C(\C#N)C(N)=S)o2)c([N+](=O)[O-])c1    1 (yes)

[Q] How did this test come out for "O=C1c2cccc3cccc(c23)C(=O)N1c1cccc(O)c1" ?
[A] 0 (no)

[Q] How about this compound: "Cc1ccc(Cc2cnc(NC(=O)/C(C#N)=C/c3ccc(-c4cccc([N+](=O)[O-])c4)o3)s2)cc1"
[A] 0 (no)

###

# Method description: Cycloheximide Counterscreen for Small Molecule Inhibitors of Shiga Toxin; also: read at 38.3 µM for the half of the compounds with a filed dose
# Assay conditions: cell reporter, cycloheximide protein synthesis inhibition counterscreen
The campaign covered roughly 300,000 compounds. About 37,000 (12%) were called active. Cut-off read from the data, not from the text of the source: active = max response mostly above about 13% (no sharp cut-off); inactive = mostly below about 14%. Only a selection was taken, and actives are over-represented in it overall.
# output must be one of active, inactive

Reference set, count: 2
Cc1nc(NC(=O)c2ccc3c(c2)OCCO3)ccc1Br    active
CC1(C)C2CCC1(C)C(OC(=O)c1ccc(O)cc1)C2 (stereo not drawn)    inactive

Please examine the following record next.
[Q] How did this test come out for "Cc1ccccc1N1CCN(Cc2nc(Cc3ccccc3F)no2)CC1" ?
[A] inactive

###

# Method description: Cycloheximide Counterscreen for Small Molecule Inhibitors of Shiga Toxin; also: read at 38.3 µM for the half of the compounds with a filed dose
# Assay conditions: cell reporter, cycloheximide protein synthesis inhibition counterscreen
In all, about 300,000 compounds went through this assay and about 37,000 (12%) were called active. Cut-off read from the data, not from the text of the source: active = max response mostly above about 13% (no sharp cut-off); inactive = mostly below about 14%. The sample holds actives, similar compounds and a random draw of the others, so the mix is not that of the screen.
# output must be one of 1.0 (active), 0.0 (inactive)

O=C(NCCCn1ccnc1)C(=O)c1cn(CC(=O)N2CCCCCC2)c2ccccc12    0.0
Clc1cccc(Cl)c1Cn1nnc(-c2cccs2)n1    0.0
O=C(NC(=S)N1CCc2ccccc21)c1ccco1    0.0
O=C(Oc1ccc(Br)cc1C(=S)N1CCOCC1)c1cccc([N+](=O)[O-])c1    0.0
CCOC(=O)C1(Cc2cccc(OC)c2)CCCN(C(=O)CCSC)C1 (stereo not given)    1.0

[Q] How did this test come out for "O=C(Nc1nncs1)c1ccccc1NS(=O)(=O)c1cccs1" ?
[A] 0.0

[Q] How about this compound: "CN(C)c1ccc(C=C2C(=O)OC3(CCCC3)OC2=O)cc1"
[A] 0.0

[Q] How about this compound: "CCOc1ccc(CN2CCN(Cc3c[nH]c4ccccc34)CC2)cc1"
[A] 0.0

[Q] How about this compound: "O=C(NC(=S)Nc1ncccn1)c1ccccc1Br"
[A] 1.0

[Q] How about this compound: "COc1ccc(OCC(=O)Nc2ccc(NC(=O)c3ccco3)c(C)c2)cc1"
[A] 0.0

[Q] How about this compound: "CN(Cc1ccc(F)cc1Cl)S(=O)(=O)c1cccs1"
[A] 0.0

[Q] How about this compound: "COc1ccccc1OCCn1c(SCC(N)=O)nc2ccccc21"
[A] 0.0

###

# Method description: Cycloheximide Counterscreen for Small Molecule Inhibitors of Shiga Toxin; also: read at 38.3 µM for the half of the compounds with a filed dose
# Assay conditions: cell reporter, cycloheximide protein synthesis inhibition counterscreen; hits give high values
In all, about 300,000 compounds went through this assay and about 37,000 (12%) were called active. Only a selection was taken, and actives are over-represented in it overall.
Measured parameter: max response (%)
Just the number in %, nothing appended.

Previously resolved entries follow.
O=C(NCc1cccc(C(F)(F)F)c1)c1cccc(S(=O)(=O)N2CCN(Cc3ccccc3)CC2)c1    -5.35
Cc1nc2ccccc2n1CC(O)c1ccccc1 (stereo not drawn)    -1.62

Turning to the following molecule.
[Q] I would be grateful if you could share the reported max response for "CC(=O)c1ccccc1OCc1ccc(C(=O)c2ccccc2)cc1" .
[A] 2.75

###

# Method description: Cycloheximide Counterscreen for Small Molecule Inhibitors of Shiga Toxin; also: read at 38.3 µM for the half of the compounds with a filed dose
# Assay conditions: cell reporter, cycloheximide protein synthesis inhibition counterscreen; hits give high values
The whole screen tested about 300,000 compounds, of which about 37,000 (12%) were called active. Many of the other results were omitted from the sample, so actives are more common in it than they were.
Measured parameter: max response

Previously resolved entries follow.
CC(C)Cc1ccc(C(C)C(=N)N)cc1 (centres undefined)    -2.08% (inactive)
CC(C)(C)n1ncc2c(=O)n(Cc3ccc(Cl)cc3)cnc21    11.3% (inactive)
COc1cc(OC)cc(-c2nc(=S)n3ccsc3n2)c1    -1.36% (inactive)

[Q] I would be grateful if you could share the reported max response for O=C(N/N=C/c1cc2c(cc1Br)OCO2)C1COc2ccccc2O1 (centres undefined) .
[A] 52.6% (active)

[Q] How about this molecule: COc1ccc(NC(=O)c2cc([N+](=O)[O-])ccc2NC(=O)CNC2CCCCC2C)c(OC)c1 (centres undefined)
[A] -4.84% (inactive)

[Q] How about this molecule: "O=C1NCC(=O)N(Cc2ccccc2)/C1=C/c1ccccc1"
[A] -7.39% (inactive)

[Q] How about this molecule: "c1ccc(-c2cn3c(n2)CCc2ccc4cccnc4c2-3)cc1"
[A] 11.1% (inactive)

[Q] How about this molecule: "COc1ccc(-c2cn3cccnc3n2)cc1"
[A] 23.9% (active)

[Q] How about this molecule: COc1ccc(CNC(=O)C(NS(=O)(=O)c2cccc3nsnc23)C(C)C)cc1 (centres undefined)
[A] 2.57% (inactive)

[Q] How about this molecule: "O=C1/C(=C/c2coc3ccc(O)cc3c2=O)SC(=S)N1c1ccccc1"
[A] -2.68% (inactive)

[Q] How about this molecule: "COc1ccc(-c2nc3ccccc3n2CCC(C)C)cc1OC"
[A] -2.09% (inactive)

[Q] How about this molecule: "COc1ccc(S(=O)(=O)N2CCSCC2)cc1"
[A] -2.78% (inactive)

[Q] How about this molecule: "Cc1ccccc1Nc1c(-c2ccccc2)nc2ncccn12"
[A] -1.21% (inactive)

[Q] How about this molecule: O=C(CNC(=O)C1COc2ccccc2O1)N/N=C/c1cc(Br)c(O)c(Br)c1 (centres undefined)
[A] -2.17% (inactive)

[Q] How about this molecule: CC1(C(=O)NNC(=S)NCC2CCCO2)CC1(Cl)Cl (centres undefined)
[A] -4.02% (inactive)

[Q] How about this molecule: "COc1ccc(-c2ccnc(SCC(=O)N3CCOCC3)n2)cc1"
[A] 2.08% (inactive)

[Q] How about this molecule: "CC(=O)c1ccc(-c2nnc(CCC(=O)N(C)Cc3cnc4ccccn34)o2)s1"
[A] 8.64% (inactive)

[Q] How about this molecule: COc1ccc(C(CNCC(=O)Nc2ccccc2F)N(C)C)cc1 (centres undefined)
[A] -2.53% (inactive)

[Q] How about this molecule: "CCOCCn1c(-c2ccccc2)nc2ccccc21"
[A] -1.28% (inactive)
